# TARGET ENTITY: human plasmin (Homo sapiens)
# Construct: purchased Calbiochem
# Sequence (P00747 581-810): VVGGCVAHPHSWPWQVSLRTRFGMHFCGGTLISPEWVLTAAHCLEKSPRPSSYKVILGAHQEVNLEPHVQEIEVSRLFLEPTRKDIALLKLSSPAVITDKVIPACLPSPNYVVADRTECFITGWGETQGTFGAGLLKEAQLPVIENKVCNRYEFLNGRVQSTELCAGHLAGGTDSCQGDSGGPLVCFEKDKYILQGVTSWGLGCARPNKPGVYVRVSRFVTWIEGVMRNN
# Sequence (P00747 97-580): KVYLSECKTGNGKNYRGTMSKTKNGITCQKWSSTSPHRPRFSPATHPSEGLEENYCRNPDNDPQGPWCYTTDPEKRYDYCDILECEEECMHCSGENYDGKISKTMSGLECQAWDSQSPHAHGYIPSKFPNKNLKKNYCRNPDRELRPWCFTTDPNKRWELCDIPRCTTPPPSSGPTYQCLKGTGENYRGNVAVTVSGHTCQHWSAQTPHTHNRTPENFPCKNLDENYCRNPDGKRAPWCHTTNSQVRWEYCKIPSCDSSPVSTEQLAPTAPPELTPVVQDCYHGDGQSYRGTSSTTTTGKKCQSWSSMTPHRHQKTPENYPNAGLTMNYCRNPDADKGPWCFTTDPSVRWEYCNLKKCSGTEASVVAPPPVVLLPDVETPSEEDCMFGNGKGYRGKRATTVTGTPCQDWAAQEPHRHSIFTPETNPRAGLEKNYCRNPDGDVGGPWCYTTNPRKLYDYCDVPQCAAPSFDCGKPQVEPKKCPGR
# PROTOCOL TEXT: Inhibition of human plasmin, fluorogenic substrate Mes-DArg-Phe-Arg-AMC
# Format: biochemical
# APPLIED CONDITIONS: Plasmin K i, Table 3 selectivity
Please respond with reported Ki for every item in the list.
Answers are plain numbers, in nM.

Worked cases, answers included:
Cc1ccc2cc1NC(=O)CNC(=O)CCCNC(=O)Cc1cccc(c1)NC(=O)[C@@H](NC(=O)[C@H]1CC[C@H](CN)CC1)Cc1ccc-2cc1
9.47
Cc1ccc2cc1NC(=O)CNC(=O)CCNC(=O)c1ccc3cc(ccc3c1)NC(=O)[C@@H](NC(=O)[C@H]1CC[C@H](CN)CC1)Cc1ccc-2cc1
2.53

Continue with the next molecule.
Prompt line: What value of measured Ki is listed for Cc1ccc2cc1NC(=O)CNC(=O)CCCNC(=O)Cc1ccc(cc1)NC(=O)[C@@H](NC(=O)[C@H]1CC[C@H](CN)CC1)Cc1ccc-2cc1 ?
Response line: 0.832

* * *

# TARGET ENTITY: human plasmin (Homo sapiens)
# Construct: purchased Calbiochem
# PROTOCOL TEXT: Inhibition of human plasmin, fluorogenic substrate Mes-DArg-Phe-Arg-AMC
# Assay type: biochemical
# APPLIED CONDITIONS: K i (μM), inhibition of plasmin, series one, 4-aminophenylalanine in P1'; steady-state velocities, equation 1
Positions of bridges follow the written chain, without caps; N, C: chain ends. Non-standard residues stand in square brackets, D forms with d. Residues, ends and D or L forms follow the SMILES beside them. Phe(4-NH2) = Nc1ccc(C[C@H](N)C(=O)O)cc1; Trx = NC[C@H]1CC[C@H](C(=O)O)CC1; βAla = NCCC(=O)O
ASSAY METRIC: Ki (µM)
Answers are plain numbers, in µM.

CC(C)C[C@H]1NC(=O)CCNC(=O)Cc2ccc(cc2)NC(=O)[C@@H](NC(=O)[C@H]2CC[C@H](CN)CC2)Cc2ccc(cc2)NC1=O [inhibitor 11]
3.85
NC[C@H]1CC[C@H](C(=O)N[C@H]2Cc3ccc(cc3)NC(=O)CCNC(=O)CNC2=O)CC1 [inhibitor 3] (H-[Trx][Phe(4-NH2)]G[βAla]; lactam 2-C)
150

Prompt line: What value of measured Ki is listed for NC[C@H]1CC[C@H](C(=O)N[C@H]2Cc3ccc(cc3)NC(=O)CCCCCNC(=O)Cc3ccc(cc3)NC2=O)CC1 [inhibitor 6] ?
Response line: 1.38

* * *

# TARGET ENTITY: human plasmin (Homo sapiens)
# Construct: purchased Calbiochem
# PROTOCOL TEXT: Inhibition of human plasmin, fluorogenic substrate Mes-DArg-Phe-Arg-AMC
# Assay type: biochemical
# APPLIED CONDITIONS: K i (nM), inhibition of plasmin, series two, substituted Bpa in P1', and acyclic analogues; steady-state velocities, equation 1
Assign labels as follows, please: yes (1) for Ki below 40 nM; no (0) for Ki equal to or exceeding 40 nM.

Cc1ccc2cc1NC(=O)CCCN1CCN(CC1)C(=O)Cc1ccc(cc1)NC(=O)[C@@H](NC(=O)[C@H]1CC[C@H](CN)CC1)Cc1ccc-2cc1 [inhibitor 36]
no (0)
Cc1ccc2cc1NC(=O)CN1CCN(CC1)C(=O)Cc1ccc(cc1)NC(=O)[C@@H](NC(=O)[C@H]1CC[C@H](CN)CC1)Cc1ccc-2cc1 [inhibitor 38]
yes (1)
Cc1ccc2cc1NC(=O)Cc1ccc(cc1)NC(=O)Cc1ccc(cc1)NC(=O)[C@@H](NC(=O)[C@H]1CC[C@H](CN)CC1)Cc1ccc-2cc1 [inhibitor 24]
yes (1)

Prompt line: Find out if reported Ki for Cc1ccc(-c2ccc(C[C@H](NC(=O)[C@H]3CC[C@H](CN)CC3)C(=O)Nc3ccc(CC(=O)NCCCC(=O)NCC(N)=O)cc3)cc2)cc1N [inhibitor 47] is less than 40 nM
Response line: no (0)

Prompt line: // same read-out, input: Cc1ccc2cc1NC(=O)CCNC(=O)CNC(=O)Cc1ccc(cc1)NC(=O)[C@@H](NC(=O)[C@H]1CC[C@H](CN)CC1)Cc1ccc-2cc1 [inhibitor 26]
Response line: yes (1)

Prompt line: // same read-out, input: Cc1ccc2cc1NC(=O)CNC(=O)CCNC(=O)c1ccc3cc(ccc3c1)NC(=O)[C@@H](NC(=O)[C@H]1CC[C@H](CN)CC1)Cc1ccc-2cc1 [inhibitor 45]
Response line: yes (1)
